- test-summary: viability loss in pontine glioma line – cell-based, SU-DIPG-XXV, MIPE5.0, CellTiter-Glo, qHTS, dose response (AID 1347065);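 note: cells exposed to compound for 48 hours before ATP readout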
- settings: CellTiter-Glo ATP luminescence
Inconclusive results are not listed. Calls of active or inactive are those of the source. No cut-off is given here; in the data, nearly all actives have AC50 up to about 26 µM.
Hi! Could you answer with just one of these? Y (active), N (inactive)

See these solved cases before continuing.
compound: O=C(CN1C(=O)C2(CCCC2)NC[C@H]1c1cc(F)cc(F)c1)Nc1ccc2c(c1)C[C@@]1(C2)C(=O)Nc2ncccc21
assigned-class: N
--
compound: Cc1ccc(Sc2ccccc2N2CCNCC2)c(C)c1
assigned-class: Y
--
compound: C/C(O)=C(\C#N)C(=O)Nc1ccc(C(F)(F)F)cc1
assigned-class: N
--
compound: COc1ccc(Cc2nccc3cc(OC)c(OC)cc23)cc1OC
assigned-class: N

[ask] Would you mind telling me which call this test gave C/C=C/C[C@@H](C)C(=O)[C@H]1C(=O)N[C@@H](C(C)C)C(=O)N(C)CC(=O)N(C)[C@@H](CC(C)C)C(=O)N[C@@H](C(C)C)C(=O)N(C)[C@@H](CC(C)C)C(=O)N[C@@H](C)C(=O)N[C@H](C)C(=O)N(C)[C@@H](CC(C)C)C(=O)N(C)[C@@H](CC(C)C)C(=O)N(C)[C@@H](C(C)C)C(=O)N1C ?
[reply] Y

[ask] Would you mind telling me which call this test gave CC[C@H](CC#N)OC(=O)N[C@@H](C)c1cccc(NC(=O)Nc2ccc(-c3cnco3)c(OC)c2)c1 ?
[reply] Y

[ask] Would you mind telling me which call this test gave C=CC(=O)Nc1cccc(Oc2nc(Nc3ccc(N4CCN(C)CC4)cc3OC)ncc2Cl)c1 ?
[reply] Y

[ask] Would you mind telling me which call this test gave Fc1cc(-c2cccc3ncc(-c4cnn(C5CCNCC5)c4)nc23)cc(F)c1CN1CCOCC1 ?
[reply] Y

[ask] Would you mind telling me which call this test gave O=C1OC2(CCC(C(=O)Nc3ccn(-c4ccccc4F)n3)CC2)c2cnccc21 (configuration not stated) ?
[reply] N
